System: THRa:RXRa (NR concentration 90 nM, RXRa partner concentration 90 nM)
EXPERIMENTAL DETAILS: PBM binding z-score (relative to random genomic background probes); higher = stronger binding; sequences stand for … in GC…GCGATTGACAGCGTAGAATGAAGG
Where PBM binding z-score equals or exceeds 4, the correct label is T; where it does not, the label is F.

>>> cat("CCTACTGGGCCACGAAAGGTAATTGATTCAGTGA")
"F"
>>> cat("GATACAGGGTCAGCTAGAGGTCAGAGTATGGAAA")
"T"
>>> cat("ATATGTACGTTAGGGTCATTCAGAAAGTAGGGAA")
"F"
>>> cat("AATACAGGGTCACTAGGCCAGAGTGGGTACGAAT")
"F"
>>> cat("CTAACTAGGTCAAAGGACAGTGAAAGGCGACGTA")
"F"
>>> cat("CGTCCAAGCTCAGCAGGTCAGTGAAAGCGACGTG")
"F"
>>> cat("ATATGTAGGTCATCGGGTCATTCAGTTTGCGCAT")
"T"
>>> cat("TCGAGTAGATTACGGGGGCATTCAGGGATGAAGA")
"F"
>>> cat("TCGAGTAGGTTACGGGGGCGTTCAGGGATGAAGA")
"F"
>>> cat("AAAATGAGGTTAAGATCAGGGAAACAGAATACAT")
"F"
>>> cat("CCTTACGGGTCAAGGTTATATCACGGGTGGTACG")
"F"

###

Measured PBM binding z-score accompanies every entry in the list below.
System: PPARg:RXRa (NR concentration 180 nM, RXRa partner concentration 90 nM)
EXPERIMENTAL DETAILS: PBM binding z-score (relative to random genomic background probes); higher = stronger binding; sequences stand for … in GC…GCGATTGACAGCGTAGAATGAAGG
RECORDED ENDPOINT: PBM binding z-score

>>> value_observed("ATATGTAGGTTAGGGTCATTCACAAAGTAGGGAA")
7.65
>>> value_observed("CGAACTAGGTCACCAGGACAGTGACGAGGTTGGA")
8.62
>>> value_observed("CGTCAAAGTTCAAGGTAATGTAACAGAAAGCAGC")
4.21
>>> value_observed("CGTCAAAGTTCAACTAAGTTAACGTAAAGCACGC")
5.09
>>> value_observed("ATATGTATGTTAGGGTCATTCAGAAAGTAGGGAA")
4.3
>>> value_observed("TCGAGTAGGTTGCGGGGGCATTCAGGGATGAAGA")
0.862
>>> value_observed("CCGAGTAGGTTAGGAGGGGGCATTCAGTGCGAAT")
1.74
>>> value_observed("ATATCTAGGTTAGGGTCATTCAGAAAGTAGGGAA")
7.73
>>> value_observed("TAGCCTAGGTCATGCGGGCCAGCATAGTGTCGGC")
2.11
>>> value_observed("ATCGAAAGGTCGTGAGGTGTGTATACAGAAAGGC")
3.6
>>> value_observed("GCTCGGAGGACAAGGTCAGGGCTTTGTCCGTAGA")
1.07
>>> value_observed("CGAACTAGGTCAACGACAGTGAATCTCCGCACGC")
7.37
>>> value_observed("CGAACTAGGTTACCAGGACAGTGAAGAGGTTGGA")
3.94
>>> value_observed("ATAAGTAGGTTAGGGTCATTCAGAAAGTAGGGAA")
8.07
>>> value_observed("TCTCGGAGGACACGAAAGGTGAGAGCTCGACATC")
0.346
>>> value_observed("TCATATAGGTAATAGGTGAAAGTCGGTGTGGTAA")
6.6
>>> value_observed("CGTCCAAGGTCAAGGGCAGTGAAAGAGACTCGAA")
5.48
>>> value_observed("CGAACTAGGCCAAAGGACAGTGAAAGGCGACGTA")
6.79
>>> value_observed("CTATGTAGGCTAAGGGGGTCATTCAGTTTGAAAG")
5.77
>>> value_observed("TCTAGTTGGTCACGGGGGTCACACACGACGGGTA")
5.57
>>> value_observed("CGAACTAGGTCACCAGGACAGTGCAGAGGTTGGA")
8.59
>>> value_observed("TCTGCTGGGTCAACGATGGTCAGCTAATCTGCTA")
1.92
>>> value_observed("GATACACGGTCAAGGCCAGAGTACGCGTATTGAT")
0.695
>>> value_observed("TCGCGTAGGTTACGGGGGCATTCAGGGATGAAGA")
4.62
>>> value_observed("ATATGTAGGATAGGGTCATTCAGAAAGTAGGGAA")
4.04
>>> value_observed("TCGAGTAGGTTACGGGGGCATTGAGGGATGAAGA")
6.35

###

Test system: LXRa:RXRa (NR concentration 270 nM, RXRa partner concentration 90 nM)
EXPERIMENTAL DETAILS: PBM binding z-score (relative to random genomic background probes); higher = stronger binding; sequences stand for … in GC…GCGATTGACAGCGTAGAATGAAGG
RECORDED ENDPOINT: PBM binding z-score

>>> value_observed("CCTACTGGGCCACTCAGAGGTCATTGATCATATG")
4.09
>>> value_observed("CGAAATAGGTCAAAGGACAGTGAAAGGCGACGTA")
4.45
>>> value_observed("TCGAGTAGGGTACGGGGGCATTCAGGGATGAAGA")
2.37
>>> value_observed("CCGAGTAGGTTACGAGGGGGTATTCAGTGCGAAT")
5.34
>>> value_observed("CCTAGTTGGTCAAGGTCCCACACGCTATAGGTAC")
0.395
>>> value_observed("ATATGTAGGTTAGGGTCAATCAGAAAGTAGGGAA")
3.66
>>> value_observed("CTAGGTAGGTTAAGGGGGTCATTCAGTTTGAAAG")
4.89
>>> value_observed("ACTCGGAGGACAAATGTCAGAGCTACGCCAGTGA")
-0.111
>>> value_observed("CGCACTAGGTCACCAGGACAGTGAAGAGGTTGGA")
2.51
>>> value_observed("CCGAGTAGGTTACGAGGGGGCCTTCAGTGCGAAT")
2.66
>>> value_observed("CAAACTAGGTCAAAGGTCAAAGTTGAGCCAACCA")
7.15
>>> value_observed("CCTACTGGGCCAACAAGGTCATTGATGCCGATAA")
2.49
>>> value_observed("TCGAATAGGTTACGGGGGCATTCAGGGATGAAGA")
3.9
>>> value_observed("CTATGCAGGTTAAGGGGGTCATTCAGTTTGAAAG")
5.01
>>> value_observed("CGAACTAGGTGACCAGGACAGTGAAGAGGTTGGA")
-0.436
>>> value_observed("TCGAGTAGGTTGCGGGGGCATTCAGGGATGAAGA")
2.17
>>> value_observed("CCTCGGAGGTCAGAAGGTCAGAGCTGTCCGCTTT")
4.89
>>> value_observed("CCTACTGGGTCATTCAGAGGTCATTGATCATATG")
6.23
>>> value_observed("AGTGAAAGTTCAGGACGAGGTAACGTAAAGCACG")
3.69
>>> value_observed("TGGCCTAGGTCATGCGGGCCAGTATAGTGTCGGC")
2.57
>>> value_observed("TTACAAAGGTGAAAGGTCGTTGATGCACGCCTTG")
4.66
>>> value_observed("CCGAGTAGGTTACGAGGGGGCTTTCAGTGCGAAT")
3.54
>>> value_observed("ACTTACGGGTCAAGGAGGTTATAGCACGCGTATA")
4.93
>>> value_observed("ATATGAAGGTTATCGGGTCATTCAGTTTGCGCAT")
3.38
>>> value_observed("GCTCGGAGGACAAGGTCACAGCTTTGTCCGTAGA")
3.99
>>> value_observed("CGAACGAGGTCAGAACAGGACAGTGAAGGATGAT")
4.06
>>> value_observed("ATCAAAAGGTCGAAGGTGAGTATACCCACCCGAA")
4
>>> value_observed("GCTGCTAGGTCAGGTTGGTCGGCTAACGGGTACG")
0.53
>>> value_observed("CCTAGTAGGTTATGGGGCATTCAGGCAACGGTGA")
0.515
>>> value_observed("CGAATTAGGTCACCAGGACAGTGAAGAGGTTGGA")
2.73
>>> value_observed("CGAACTAGGTCAAAGGTCAGTGAAAGGCGACGTA")
6
>>> value_observed("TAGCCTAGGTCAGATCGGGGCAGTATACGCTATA")
1.42
>>> value_observed("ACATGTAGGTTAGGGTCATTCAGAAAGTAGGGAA")
4.23
>>> value_observed("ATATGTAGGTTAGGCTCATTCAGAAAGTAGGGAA")
-0.0164
>>> value_observed("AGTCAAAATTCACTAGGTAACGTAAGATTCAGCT")
0.568
>>> value_observed("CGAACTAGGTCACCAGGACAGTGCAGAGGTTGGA")
2.7
>>> value_observed("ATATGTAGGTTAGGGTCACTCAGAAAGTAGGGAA")
3.26
>>> value_observed("CGTCCAACGTCAAGGTCAGTGAAAGAGACTCGAA")
1.12
>>> value_observed("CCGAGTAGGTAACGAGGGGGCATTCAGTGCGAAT")
5.77
>>> value_observed("ACTTGGAGGACAAAGGTCAGAGCTACGCCAGTGA")
4.49
>>> value_observed("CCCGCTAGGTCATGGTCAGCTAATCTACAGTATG")
2.72
>>> value_observed("CGAACTAGGTCAGAGCAGGACAGTGAAGGATGAT")
0.722
>>> value_observed("CGAACTAGGTCAAAGGCCAGTGAAAGGCGACGTA")
2.92
>>> value_observed("TCGAGTAGTTTACGGGGGCATTCAGGGATGAAGA")
2.22
>>> value_observed("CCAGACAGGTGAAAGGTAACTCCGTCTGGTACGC")
0.648
>>> value_observed("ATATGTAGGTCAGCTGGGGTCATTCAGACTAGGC")
6.41
>>> value_observed("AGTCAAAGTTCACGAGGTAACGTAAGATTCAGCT")
6.36
>>> value_observed("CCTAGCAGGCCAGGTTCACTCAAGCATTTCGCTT")
0.554
>>> value_observed("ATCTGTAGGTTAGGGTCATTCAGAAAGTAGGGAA")
4.18
>>> value_observed("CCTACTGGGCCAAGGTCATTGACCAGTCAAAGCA")
4.03
>>> value_observed("CAGACTAGGTCAAAGGTCAAAGTCGAGCCAACCA")
6.96
